Source listed as the supplement of paper PMC11061612.

System: PEO1 (Ovarian Carcinoma);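 note: after 72 h of two-drug dosing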
test.method.notes: Bliss excess, mean over the matrix (fraction); higher = more synergy
Bliss excess vs -0.04: at or above is 1 (yes), below is 0 (no).

Known results for compounds:
CCc1c2c(nc3ccc(O)cc13)-c1cc3c(c(=O)n1C2)COC(=O)[C@]3(O)CC [SN-38] + CN(C)CCCOc1ccc(-c2ccc3ncc4c(c3c2)n(C2CCOCC2)c(=O)n4C)cn1 [AZD0156] (first compound max 0.3 µM, 7x7, partner max 1 µM) :: 1 (yes)
CN(CCO)CC[C@H](CSc1ccccc1)Nc1ccc(S(=O)(=O)NC(=O)c2ccc(N3CCC([C@@H](O)c4ccccc4-c4ccc(Cl)cc4)CC3)cc2)cc1S(=O)(=O)C(F)(F)F [AZD4320] + C[C@@H](Nc1cc(F)cc(F)c1)c1cc(C(=O)N(C)C)cc2c(=O)cc(N3CCOCC3)oc12 [AZD8186] (first compound max 1 µM, 7x7, partner max 3 µM) :: 0 (no)
Cc1cc2ncnn2cc1Nc1ncc2c(n1)n(C1CCOCC1)c(=O)n2C [AZD7648] + O=C(c1cc(Cc2n[nH]c(=O)c3ccccc23)ccc1F)N1CCN(C(=O)C2CC2)CC1 [Olaparib] (first compound max 10 µM, 7x7, partner max 10 µM) :: 1 (yes)
CC1(C)CCC(CN2CCN(c3ccc(C(=O)NS(=O)(=O)c4ccc(NCC5CCOCC5)c([N+](=O)[O-])c4)c(Oc4cnc5[nH]ccc5c4)c3)CC2)=C(c2ccc(Cl)cc2)C1 [Venetoclax] + Cc1cc2ncnn2cc1Nc1ncc2c(n1)n(C1CCOCC1)c(=O)n2C [AZD7648] (first compound max 1 µM, 7x7, partner max 10 µM) :: 1 (yes)
CS(=O)(=O)CCNCc1ccc(-c2ccc3ncnc(Nc4ccc(OCc5cccc(F)c5)c(Cl)c4)c3c2)o1 [Lapatinib] + NC1(c2ccc(-c3nc4ccn5c(=O)[nH]nc5c4cc3-c3ccccc3)cc2)CCC1 [MK-2206] (first compound max 10 µM, 7x7, partner max 10 µM) :: 0 (no)

# input for lookup
stdin: Does Bliss excess meet or surpass -0.04 for Cc1c2c(nn1C)CSCc1cc(n(C)n1)CSc1cc(c3ccccc3c1)OCCCc1c(C(=O)O)n(C)c3c-2c(Cl)ccc13 [AZD5991] + CC(=O)O[C@H]1C(=O)[C@@]2(C)[C@H]([C@H](OC(=O)c3ccccc3)[C@]3(O)C[C@H](OC(=O)[C@H](O)[C@@H](NC(=O)c4ccccc4)c4ccccc4)C(C)=C1C3(C)C)[C@]1(OC(C)=O)CO[C@@H]1C[C@@H]2O [Paclitaxel] (first compound max 1 µM, 7x7, partner max 3 µM) ?
stdout: 0 (no)
